Cited source for all entries: ChEMBL document CHEMBL1961873

Biological target: Serine/threonine-protein kinase DCLK2 (Homo sapiens);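 further: reported value is the mean percent inhibition of DCAMKL2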
Sequence (whole entry): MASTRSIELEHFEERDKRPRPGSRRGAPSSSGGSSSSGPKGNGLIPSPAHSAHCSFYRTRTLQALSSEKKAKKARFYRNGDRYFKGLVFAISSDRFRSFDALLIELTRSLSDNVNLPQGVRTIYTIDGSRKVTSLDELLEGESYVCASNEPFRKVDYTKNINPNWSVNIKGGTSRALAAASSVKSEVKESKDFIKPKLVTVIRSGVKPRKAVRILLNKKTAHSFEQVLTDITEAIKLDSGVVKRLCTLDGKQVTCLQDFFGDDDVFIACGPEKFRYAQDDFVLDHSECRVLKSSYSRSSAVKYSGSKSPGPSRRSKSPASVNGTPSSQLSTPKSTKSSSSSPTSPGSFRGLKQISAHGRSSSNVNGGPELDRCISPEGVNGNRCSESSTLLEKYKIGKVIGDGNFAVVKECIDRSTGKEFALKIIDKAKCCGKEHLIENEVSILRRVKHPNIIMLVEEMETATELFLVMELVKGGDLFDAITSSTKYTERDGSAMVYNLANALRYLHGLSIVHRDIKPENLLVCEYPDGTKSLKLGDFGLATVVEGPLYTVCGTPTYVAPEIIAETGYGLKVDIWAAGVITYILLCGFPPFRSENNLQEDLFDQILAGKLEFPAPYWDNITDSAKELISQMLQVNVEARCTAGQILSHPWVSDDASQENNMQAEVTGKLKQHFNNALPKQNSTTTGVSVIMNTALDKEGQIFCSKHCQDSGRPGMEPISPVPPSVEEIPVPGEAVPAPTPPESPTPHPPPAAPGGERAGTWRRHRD
Settings: at 0.1 µM
measured quantity: inhibition (%)
Give bare numbers, in %.

Observe how each entry below is paired with its result.
> print(dat)
                                  structure  value.measured
1  NS(=O)(=O)c1cccc(-c2cc3ccncc3cc2OCc2ccccc2)c1             0.9
2  Cc1ccc(NC(=O)CC2CC2)cc1-c1ccc(C(=O)NCC2CC2)cc1            1.13
3  CCS(=O)(=O)c1ccc(OC)c(Nc2nccc(N(C)c3ccc4c(C)n[nH]c4c3)n2)c1            -0.1
4   Cc1ccc(C(=O)NC2CC2)cc1-c1ccc2[nH]ncc2c1           -3.53

Turning now to a further record.
Qu. Give a short answer stating reported inhibition for NS(=O)(=O)c1cccc(Nc2cc(-c3ccc(F)cc3)n[nH]2)c1 .
Ans. 0.71
